# EXPERIMENTAL_SYSTEM: T1, GFP-9S library array, motif 4 ND N98H (synthetic construct, N98H)
# T1 chain: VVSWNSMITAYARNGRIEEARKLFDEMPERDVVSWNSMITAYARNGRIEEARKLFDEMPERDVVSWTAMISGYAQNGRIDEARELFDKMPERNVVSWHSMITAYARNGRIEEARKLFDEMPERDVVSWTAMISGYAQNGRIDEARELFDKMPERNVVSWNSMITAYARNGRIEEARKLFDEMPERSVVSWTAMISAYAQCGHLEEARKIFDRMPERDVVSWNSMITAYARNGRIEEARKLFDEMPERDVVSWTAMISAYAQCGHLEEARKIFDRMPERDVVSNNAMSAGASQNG
# ASSAY_OVERVIEW: high-throughput RNA pulldown from lysate on Ni-NTA beads; HRP: 50 mM Tris pH 8, 150 mM NaCl, 1 mM beta-mercaptoethanol, 50 ug/ml BSA, 3 ug/ml yeast RNA, 0.5% heparin; ITC and FP: Tris pH 8, 200 mM KCl, 5% glycerol; MST: 50 mM Tris pH 8, 200 mM NaCl, 1 mM DTT, BSA, heparin, 0.05% Tween 20
# COND: tags: N-terminal His-eGFP; label: 5' Cy5
REPORTED_METRIC: pKd
One number for each entry, as −log10 of the molar value.

- BINDER: "AUUAGACGUGA (ssRNA) [Cy5-rpoA-G]"
  pKd: 7.58

Here is the next item to consider.
Any idea what its pKd is? The binder is AUUACACGUGA (ssRNA) [Cy5-rpoA]
6.84

Measured values drawn from paper PMC8809517 for this set.
